- ASSAYED_TARGET: Cbl (aa49-434) (Homo sapiens)
- Construct: Cbl (aa49-434, in-house); made in house
- Sequence (P22681 49-434): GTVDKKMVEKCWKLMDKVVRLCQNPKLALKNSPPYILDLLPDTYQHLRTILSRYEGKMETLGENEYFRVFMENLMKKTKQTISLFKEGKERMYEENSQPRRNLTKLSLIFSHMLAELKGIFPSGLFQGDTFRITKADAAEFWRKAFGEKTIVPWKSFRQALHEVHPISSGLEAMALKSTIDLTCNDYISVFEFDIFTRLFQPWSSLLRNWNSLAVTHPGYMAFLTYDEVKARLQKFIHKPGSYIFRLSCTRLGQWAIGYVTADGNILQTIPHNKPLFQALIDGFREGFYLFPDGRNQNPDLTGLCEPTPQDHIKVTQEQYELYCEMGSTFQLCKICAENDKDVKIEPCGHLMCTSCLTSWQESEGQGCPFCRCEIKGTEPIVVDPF
- MEASUREMENT_DESCRIPTION: Co-expressed Cbl with BirA biochemical assay (CBL/E2-Ub binding, HTRF)
- ASSAY_CONDITIONS: 0.6 nM Cbl co-expressed with BirA, read-out: co-express CBL/E2-Ub-binding assay IC50
PROPERTY_LABEL: pIC50
// pIC50: -log10(molar conc.)

**Query** So what does the record say about pIC50 for Cn1cnnc1C[C@]1(c2cccc(NC(=O)c3cc(CNCC4(C)CCCC4)cn4c(Cl)cnc34)c2)C[C@H](C#N)C1 ?
**Result** 8.64

**Query** So what does the record say about pIC50 for CC(C)CNCc1cc(C(=O)Nc2cccc([C@]3(c4nncn4C)C[C@@H](C)C3)c2)c2ncc(F)n2c1 ?
**Result** 8.15

**Query** So what does the record say about pIC50 for C[C@H](NCc1cc(C(=O)Nc2cccc([C@]3(c4nncn4C)C[C@@H](C)C3)c2)c2ncc(Cl)n2c1)C1CCC1 ?
**Result** 8.77

**Query** So what does the record say about pIC50 for C[C@H](NCc1cc(C(=O)Nc2cccc([C@]3(c4nncn4C)C[C@@H](CC#N)C3)c2)nc2c1NCC2(C)C)C1CC1 ?
**Result** 8.46

**Query** So what does the record say about pIC50 for C[C@H](NCc1cc(C(=O)Nc2cccc([C@]3(Cc4nncn4C)C[C@@H](C#N)C3)c2)c2nccn2c1)C1CCCC1 ?
**Result** 8.96

**Query** So what does the record say about pIC50 for C[C@H](NCc1cc(C(=O)Nc2cncc([C@]3(c4nncn4C)C[C@@H](C)C3)c2)c2ncc(F)n2c1)C1CCC1 ?
**Result** 8.96

**Query** So what does the record say about pIC50 for Cn1cnnc1[C@]1(c2cccc(NC(=O)c3cc(CNC4(C)CC4)cn4ccnc34)c2)C[C@H](CC#N)C1 ?
**Result** 7.98

**Query** So what does the record say about pIC50 for Cn1cnnc1[C@]1(c2cccc(NC(=O)c3cc(CNCC4(C)CCC4)cn4ccnc34)c2)C[C@H](CC#N)C1 ?
**Result** 8.19

**Query** So what does the record say about pIC50 for Cn1cnnc1[C@]1(c2cccc(NC(=O)c3cc(CNCC4CCCC4)cn4ccnc34)c2)C[C@H](CC#N)C1 ?
**Result** 8.20

**Query** So what does the record say about pIC50 for Cn1cnnc1[C@]1(c2cccc(NC(=O)c3cc(CNCC4CCCCC4)c4c(n3)C(C)(C)CC4)c2)C[C@H](CC#N)C1 ?
**Result** 8.18

**Query** So what does the record say about pIC50 for Cn1cnnc1[C@]1(c2cccc(NC(=O)c3cc(CNCC4(C)CCC4)cn4c(Cl)cnc34)c2)C[C@H](CC#N)C1 ?
**Result** 7.89

**Query** So what does the record say about pIC50 for Cn1cnnc1[C@]1(c2cncc(NC(=O)c3cc(CNC4(C)CC4)cn4ncnc34)c2)C[C@H](C)C1 ?
**Result** 7.70

**Query** So what does the record say about pIC50 for Cc1c[nH]c2c(CN3CC[C@H](F)[C@H](C)C3)cc(C(=O)Nc3cccc([C@]4(c5nncn5C)C[C@@H](C)C4)c3)nc12 ?
**Result** 8.26

----------
- ASSAYED_TARGET: Cbl-b (aa36-427) (Homo sapiens)
- Construct: Cbl-b (aa36-427, in-house); made in house
- MEASUREMENT_DESCRIPTION: Co-expressed Cbl-b with BirA biochemical assay (CBLB/E2-Ub binding, HTRF)
- ASSAY_CONDITIONS: 0.6 nM Cbl-b co-expressed with BirA, HTRF; read-out: co-express CBLB/E2-Ub-binding assay IC50
PROPERTY_LABEL: pIC50
// pIC50: -log10(molar conc.)

**Query** Hello, I am looking for reported pIC50 with Cbl-b (aa36-427) (Homo sapiens) for Cc1cnc2c(C(=O)Nc3cccc([C@]4(c5nncn5C)C[C@@H](C)C4)c3)cc(CNCC3CCC3)cn12 . Could you help?
**Result** 8.70

**Query** Hello, I am looking for reported pIC50 with Cbl-b (aa36-427) (Homo sapiens) for Cn1cnnc1[C@]1(c2cccc(NC(=O)c3cc(CNCC4CCCC4)cn4c(F)cnc34)c2)C[C@H](C)C1 . Could you help?
**Result** 8.82

**Query** Hello, I am looking for reported pIC50 with Cbl-b (aa36-427) (Homo sapiens) for Cn1cnnc1[C@]1(c2cccc(NC(=O)c3cc(CNCC4CCC4)c4c(n3)C(C)(C)CC4)c2)C[C@H](C)C1 . Could you help?
**Result** 9.05

**Query** Hello, I am looking for reported pIC50 with Cbl-b (aa36-427) (Homo sapiens) for Cn1cnnc1[C@]1(c2cncc(NC(=O)c3cc(CNCC4CCC4)c4c(n3)C(F)(F)CC4)c2)C[C@H](C)C1 . Could you help?
**Result** 8.48

**Query** Hello, I am looking for reported pIC50 with Cbl-b (aa36-427) (Homo sapiens) for Cc1cnc2c(C(=O)Nc3cccc([C@]4(c5nncn5C)C[C@@H](CC#N)C4)c3)cc(CN3CCC[C@H](C)C3)cn12 . Could you help?
**Result** 7.92

**Query** Hello, I am looking for reported pIC50 with Cbl-b (aa36-427) (Homo sapiens) for Cc1cnc2c(C(=O)Nc3cncc([C@]4(c5nncn5C)C[C@@H](C)C4)c3)cc(CN[C@H]3C[C@@H](C)C3)cn12 . Could you help?
**Result** 8.57

**Query** Hello, I am looking for reported pIC50 with Cbl-b (aa36-427) (Homo sapiens) for C[C@H]1CCCN(Cc2cc(C(=O)Nc3cccc(C4(c5nncn5C)CC(CC#N)C4)c3)nc3c2CCC3(C)C)C1 (some centres unmarked) . Could you help?
**Result** 8.59

**Query** Hello, I am looking for reported pIC50 with Cbl-b (aa36-427) (Homo sapiens) for C[C@H]1CCCN(Cc2cc(C(=O)Nc3cccc([C@]4(c5nncn5C)C[C@@H](CC#N)C4)c3)nc3c(F)c[nH]c23)C1 . Could you help?
**Result** 8.89

----------
- ASSAYED_TARGET: Cbl-b (aa36-427) (Homo sapiens, UniProt Q13191)
- Construct: Cbl-b (aa36-427, in-house); made in house
- Sequence (Q13191 36-427): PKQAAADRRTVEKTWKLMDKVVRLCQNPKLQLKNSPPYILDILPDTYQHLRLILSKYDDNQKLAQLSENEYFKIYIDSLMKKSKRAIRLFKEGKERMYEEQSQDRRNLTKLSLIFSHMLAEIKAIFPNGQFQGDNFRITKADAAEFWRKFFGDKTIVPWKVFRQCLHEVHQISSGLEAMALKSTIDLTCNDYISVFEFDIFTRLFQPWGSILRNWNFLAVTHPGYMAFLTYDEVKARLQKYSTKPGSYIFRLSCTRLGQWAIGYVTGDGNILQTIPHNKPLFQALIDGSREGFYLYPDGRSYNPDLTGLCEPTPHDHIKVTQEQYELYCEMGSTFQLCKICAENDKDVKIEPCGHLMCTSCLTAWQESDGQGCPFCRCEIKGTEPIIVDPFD
- MEASUREMENT_DESCRIPTION: Co-expressed Cbl-b with BirA biochemical assay (CBLB/E2-Ub binding, HTRF)
- ASSAY_CONDITIONS: 0.6 nM Cbl-b co-expressed with BirA, HTRF; read-out: co-express CBLB/E2-Ub-binding assay IC50
PROPERTY_LABEL: IC50 (nM)
Use nM as the unit, but write only the number.

**Query** So what does the record say about IC50 for C[C@H](NCc1cc(C(=O)Nc2cncc([C@]3(c4nncn4C)C[C@@H](C)C3)c2)c2ncc(F)n2c1)C1CCC1 ?
**Result** 0.9

**Query** So what does the record say about IC50 for Cn1cnnc1[C@]1(c2cncc(NC(=O)c3cc(CNC4(C)CC4)cn4ncnc34)c2)C[C@H](C)C1 ?
**Result** 4.4

**Query** So what does the record say about IC50 for Cn1cnnc1[C@]1(c2cccc(NC(=O)c3cc(CNCC4CCC4)c4ccsc4n3)c2)C[C@H](C)C1 ?
**Result** 0.8

**Query** So what does the record say about IC50 for Cn1cnnc1[C@]1(c2cccc(NC(=O)c3cc(CNCC4CCCC4)cn4ccnc34)c2)C[C@H](CC#N)C1 ?
**Result** 1.3

**Query** So what does the record say about IC50 for Cn1cnnc1C[C@]1(c2cccc(NC(=O)c3cc(CNC4(C)CC4)c4c(n3)C(C)(C)CN4)c2)C[C@H](C#N)C1 ?
**Result** 1.5

**Query** So what does the record say about IC50 for Cn1ccc2c(CNCC3CCC3)cc(C(=O)Nc3cccc([C@]4(c5nncn5C)C[C@@H](C)C4)c3)nc21 ?
**Result** 1.7

**Query** So what does the record say about IC50 for Cn1cnnc1[C@]1(c2cncc(NC(=O)c3cc(CNC4(C)CCC4)cn4c(F)cnc34)c2)C[C@H](C)C1 ?
**Result** 2.6

**Query** So what does the record say about IC50 for Cn1cnnc1[C@]1(c2cccc(NC(=O)c3cc(CNCC4(C)CCCC4)cn4c(Cl)cnc34)c2)C[C@H](CC#N)C1 ?
**Result** 1

**Query** So what does the record say about IC50 for C[C@H](NCc1cc(C(=O)Nc2cncc([C@]3(c4nncn4C)C[C@@H](C)C3)c2)nc2cc[nH]c12)C1CCC1 ?
**Result** 0.6

**Query** So what does the record say about IC50 for C[C@H](NCc1cc(C(=O)Nc2cccc([C@]3(c4nncn4C)C[C@@H](CC#N)C3)c2)nc2c1NCC21CC1)C1CC1 ?
**Result** 1.8

**Query** So what does the record say about IC50 for C[C@H]1CCCN(Cc2cc(C(=O)Nc3cccc([C@]4(c5nncn5C)C[C@@H](CC#N)C4)c3)nn3cccc23)C1 ?
**Result** 13.6

**Query** So what does the record say about IC50 for C[C@H](NCc1cc(C(=O)Nc2cccc([C@]3(c4nncn4C)C[C@@H](CC#N)C3)c2)nc2c1CCC2(C)C)C1CC1 ?
**Result** 0.8

**Query** So what does the record say about IC50 for Cn1cnnc1[C@]1(c2cccc(NC(=O)c3cc(CNC4(C)CC4)cn4c(F)cnc34)c2)C[C@H](C)C1 ?
**Result** 1.2

**Query** So what does the record say about IC50 for [2H]C([2H])([2H])n1cnnc1[C@]1(c2cccc(NC(=O)c3cc(CNC4(C)CC4)cn4ccnc34)c2)C[C@H](C)C1 ?
**Result** 0.7

**Query** So what does the record say about IC50 for Cn1cnnc1[C@]1(c2cncc(NC(=O)c3cc(CNCC4CCC4)c4ccsc4n3)c2)C[C@H](C)C1 ?
**Result** 0.9

**Query** So what does the record say about IC50 for Cn1cnnc1[C@]1(c2cccc(NC(=O)c3cc(CNC4(C)CCC4)c4ccsc4n3)c2)C[C@H](CC#N)C1 ?
**Result** 0.8

**Query** So what does the record say about IC50 for C[C@H]1CCCN(Cc2cc(C(=O)Nc3cccc([C@]4(c5nncn5C)C[C@@H](CC#N)C4)c3)c3nc(F)cn3c2)C1 ?
**Result** 6.1

**Query** So what does the record say about IC50 for Cn1cnnc1[C@]1(c2cccc(NC(=O)c3cc(CNC4(C)CC4)cn4ccnc34)c2)C[C@H](C)C1 ?
**Result** 0.9

**Query** So what does the record say about IC50 for C[C@H](NCc1cc(C(=O)Nc2cncc([C@]3(c4nncn4C)C[C@@H](C)C3)c2)nc2c1CCC2(F)F)C1CCC1 ?
**Result** 1.5

**Query** So what does the record say about IC50 for Cn1cnnc1[C@]1(c2cccc(NC(=O)c3cc(CNC4(C)CC4)cc4c(Cl)cnn34)c2)C[C@H](C)C1 ?
**Result** 0.5

**Query** So what does the record say about IC50 for Cn1cnnc1[C@]1(c2cccc(NC(=O)c3cc(CNC4(C)CC4)c4[nH]cc(Cl)c4n3)c2)C[C@H](CC#N)C1 ?
**Result** 0.9

**Query** So what does the record say about IC50 for C[C@H]1CCCN(Cc2cc(C(=O)Nc3cccc([C@]4(c5nncn5C)C[C@@H](CC#N)C4)c3)nc3c2NCC32CC2)C1 ?
**Result** 2.7

**Query** So what does the record say about IC50 for C[C@H](NCc1cc(C(=O)Nc2cccc([C@]3(c4nncn4C)C[C@@H](CC#N)C3)c2)nc2cc[nH]c12)C1CCCC1 ?
**Result** 1.2

**Query** So what does the record say about IC50 for C[C@H](NCc1cc(C(=O)Nc2cccc([C@]3(c4nncn4C)C[C@@H](CC#N)C3)c2)nc2c1NCC2(C)C)C1CC1 ?
**Result** 1

**Query** So what does the record say about IC50 for CC(C)CNCc1cc(C(=O)Nc2cccc([C@]3(c4nncn4C)C[C@@H](C)C3)c2)c2nccn2c1 ?
**Result** 1.1

**Query** So what does the record say about IC50 for Cn1cnnc1[C@]1(c2cccc(NC(=O)c3cc(CNC4(C)CCC4)c4[nH]ccc4n3)c2)C[C@H](CC#N)C1 ?
**Result** 1.2

**Query** So what does the record say about IC50 for CC(C)CNCc1cc(C(=O)Nc2cncc([C@]3(c4nncn4C)C[C@@H](C)C3)c2)nc2c(F)c[nH]c12 ?
**Result** 0.89

From: patent US20250163047A1
